Cited source for all entries: the supplement of paper PMC3545927

- MEASURED_ON: furin, P09958
- Sequence (P09958 whole entry): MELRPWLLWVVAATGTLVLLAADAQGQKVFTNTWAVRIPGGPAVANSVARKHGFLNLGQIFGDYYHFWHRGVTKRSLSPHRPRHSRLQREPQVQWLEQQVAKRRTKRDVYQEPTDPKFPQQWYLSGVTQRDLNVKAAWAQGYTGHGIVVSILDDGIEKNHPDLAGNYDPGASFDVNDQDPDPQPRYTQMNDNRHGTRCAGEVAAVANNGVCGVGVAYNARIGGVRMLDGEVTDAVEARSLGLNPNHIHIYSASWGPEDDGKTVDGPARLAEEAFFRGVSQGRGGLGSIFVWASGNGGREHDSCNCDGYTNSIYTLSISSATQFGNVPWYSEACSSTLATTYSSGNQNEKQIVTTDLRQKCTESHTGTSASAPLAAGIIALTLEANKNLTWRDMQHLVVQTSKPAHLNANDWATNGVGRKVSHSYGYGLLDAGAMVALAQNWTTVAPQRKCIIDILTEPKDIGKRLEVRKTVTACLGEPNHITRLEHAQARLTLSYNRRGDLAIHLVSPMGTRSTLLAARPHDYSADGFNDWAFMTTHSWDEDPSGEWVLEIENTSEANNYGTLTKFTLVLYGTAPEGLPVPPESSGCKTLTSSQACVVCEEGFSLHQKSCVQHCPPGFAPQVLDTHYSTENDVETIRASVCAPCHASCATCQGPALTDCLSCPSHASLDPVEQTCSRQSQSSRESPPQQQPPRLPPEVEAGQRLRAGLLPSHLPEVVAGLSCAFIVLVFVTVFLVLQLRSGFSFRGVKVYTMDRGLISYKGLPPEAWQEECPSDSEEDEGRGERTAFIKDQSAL
- ASSAY_INFO: furin cleavage Z-score vs untreated control; higher = more cleavage, active = 3.5 or more, inactive = 1 or less, 8 variable residues between constant flanks;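 note: purified furin at 1:10 enzyme:substrate in 50 mM HEPES pH 7.5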
- RUN_CONDITIONS: 30 min
Some of the results follow. The hit rate among all sequences tested is not known here.
Allowed answers: class 1 for active, class 0 for inactive

Worked examples, 4 sequences total:
{"SEQUENCE_CODE": "CAYPWPLYGNAGNASASA [HC201]", "CATEGORY_LABEL": "class 0"}
{"SEQUENCE_CODE": "CAEVVKSTWVAGNASASA [HC131]", "CATEGORY_LABEL": "class 0"}
{"SEQUENCE_CODE": "CAPCTINYTIAGNASASA [HC470]", "CATEGORY_LABEL": "class 0"}
{"SEQUENCE_CODE": "CARARRALRRAGNASASA [FS-2130]", "CATEGORY_LABEL": "class 1"}

Challenge: Kindly provide the recorded test outcome for the following sequence: CAEDVVCCSMAGNASASA [HC1368]
Response given: class 0

Challenge: Same lookup for CAVCAAILRRAGNASASA [HC1109] , please.
Response given: class 0

Challenge: Same lookup for CARARRAVDKAGNASASA [FS-2252] , please.
Response given: class 1
